target: JAK3 (Homo sapiens (Human)); assay: JAK3 LANCE Ultra kinase assay; format: biochemical; settings: 4 uM ATP
Sequence (P52333 whole entry): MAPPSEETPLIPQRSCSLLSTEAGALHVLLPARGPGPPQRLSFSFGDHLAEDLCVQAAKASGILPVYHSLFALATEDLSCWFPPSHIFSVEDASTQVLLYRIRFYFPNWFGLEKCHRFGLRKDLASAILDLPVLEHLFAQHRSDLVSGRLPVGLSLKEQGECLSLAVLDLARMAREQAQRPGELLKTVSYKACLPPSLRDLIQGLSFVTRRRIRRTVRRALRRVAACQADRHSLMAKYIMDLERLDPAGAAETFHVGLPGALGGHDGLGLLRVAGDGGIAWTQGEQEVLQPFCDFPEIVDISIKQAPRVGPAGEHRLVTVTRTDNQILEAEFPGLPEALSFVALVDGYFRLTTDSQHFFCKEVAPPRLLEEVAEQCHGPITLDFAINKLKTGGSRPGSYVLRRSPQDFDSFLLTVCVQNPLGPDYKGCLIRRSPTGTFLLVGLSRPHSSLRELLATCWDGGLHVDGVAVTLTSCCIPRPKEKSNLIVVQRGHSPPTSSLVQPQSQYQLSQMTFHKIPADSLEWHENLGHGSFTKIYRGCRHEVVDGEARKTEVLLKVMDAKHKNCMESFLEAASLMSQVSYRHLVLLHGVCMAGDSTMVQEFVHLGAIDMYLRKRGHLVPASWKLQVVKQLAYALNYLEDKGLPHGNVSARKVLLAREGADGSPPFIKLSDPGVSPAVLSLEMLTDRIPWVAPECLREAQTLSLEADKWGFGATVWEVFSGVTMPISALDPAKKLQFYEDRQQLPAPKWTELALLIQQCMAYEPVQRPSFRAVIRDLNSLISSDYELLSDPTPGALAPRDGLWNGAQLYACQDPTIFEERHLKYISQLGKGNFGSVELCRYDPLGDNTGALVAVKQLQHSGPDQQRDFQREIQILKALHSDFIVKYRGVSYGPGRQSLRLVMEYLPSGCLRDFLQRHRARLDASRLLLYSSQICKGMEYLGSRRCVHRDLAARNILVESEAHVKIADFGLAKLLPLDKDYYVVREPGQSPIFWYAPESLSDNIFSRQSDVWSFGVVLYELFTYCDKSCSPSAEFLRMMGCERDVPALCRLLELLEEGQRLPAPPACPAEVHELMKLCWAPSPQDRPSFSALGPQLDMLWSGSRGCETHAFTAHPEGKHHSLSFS
observable: IC50 (nM)

compound="CN(c1c(C#N)cnc2[nH]ccc12)C1CC(NS(=O)(=O)c2ccc(C(F)(F)F)cc2)C1 (centres unmarked) [Compound H16]" observable=IC50 test_value=633

1. CN(c1c(C#N)cnc2[nH]ccc12)[C@H]1C[C@@H]2CN(S(=O)(=O)CCC(F)(F)F)C[C@@H]2C1 [Compound H27]
2. CC[C@@H]1CN(S(=O)(=O)CCC(F)(F)F)C[C@@H]1Nc1c(C#N)cnc2[nH]ccc12 (relative stereo) [Compound H76]
3. CN(C)Cc1nsc(NC(=O)N2C[C@H]3C[C@H](Nc4c(C#N)cnc5[nH]ccc45)C[C@H]3C2)n1 [Compound H55]
IN: # rank by IC50, ascending (min first) Your reply should list the labels following the order given in the request.
OUT: 2, 1, 3
(2: 91 nM, 1: 171 nM, 3: 253 nM)

P. COCCOc1nsc(NC(=O)N2C[C@H]3C[C@H](Nc4c(C#N)cnc5[nH]ccc45)C[C@H]3C2)n1 [Compound H52]
Q. CCOc1noc(NC(=O)N2C[C@H]3C[C@H](N(C)c4c(C#N)cnc5[nH]ccc45)C[C@H]3C2)n1 [Compound H47]
IN: Select the item whose IC50 value is smaller, choosing between P and Q . When you have decided, please share the label of that item.
OUT: P

a. CN1CCN(S(=O)(=O)C[C@H]2CC[C@H](N(C)c3c(C#N)cnc4[nH]ccc34)CC2)CC1 [Compound H63]
b. CN(c1c(C#N)cnc2[nH]ccc12)[C@H]1C[C@@H]2CN(C(=O)Nc3nc(C4CC4)ns3)C[C@@H]2C1 [Compound H26]
c. CC[C@@H]1CC(NS(=O)(=O)c2cccc(C(F)(F)F)c2)C[C@@H]1Nc1c(C#N)cnc2[nH]ccc12 (some centres unmarked) [Compound H60]
IN: # sort list by recorded IC50, greatest to least Your reply should list the labels following the order given in the request.
OUT: c, b, a

---

target: JAK2 (Homo sapiens (Human)); experiment: JAK2 LANCE Ultra kinase assay; assay type: biochemical; conditions: 12 uM ATP
Sequence (O60674 whole entry): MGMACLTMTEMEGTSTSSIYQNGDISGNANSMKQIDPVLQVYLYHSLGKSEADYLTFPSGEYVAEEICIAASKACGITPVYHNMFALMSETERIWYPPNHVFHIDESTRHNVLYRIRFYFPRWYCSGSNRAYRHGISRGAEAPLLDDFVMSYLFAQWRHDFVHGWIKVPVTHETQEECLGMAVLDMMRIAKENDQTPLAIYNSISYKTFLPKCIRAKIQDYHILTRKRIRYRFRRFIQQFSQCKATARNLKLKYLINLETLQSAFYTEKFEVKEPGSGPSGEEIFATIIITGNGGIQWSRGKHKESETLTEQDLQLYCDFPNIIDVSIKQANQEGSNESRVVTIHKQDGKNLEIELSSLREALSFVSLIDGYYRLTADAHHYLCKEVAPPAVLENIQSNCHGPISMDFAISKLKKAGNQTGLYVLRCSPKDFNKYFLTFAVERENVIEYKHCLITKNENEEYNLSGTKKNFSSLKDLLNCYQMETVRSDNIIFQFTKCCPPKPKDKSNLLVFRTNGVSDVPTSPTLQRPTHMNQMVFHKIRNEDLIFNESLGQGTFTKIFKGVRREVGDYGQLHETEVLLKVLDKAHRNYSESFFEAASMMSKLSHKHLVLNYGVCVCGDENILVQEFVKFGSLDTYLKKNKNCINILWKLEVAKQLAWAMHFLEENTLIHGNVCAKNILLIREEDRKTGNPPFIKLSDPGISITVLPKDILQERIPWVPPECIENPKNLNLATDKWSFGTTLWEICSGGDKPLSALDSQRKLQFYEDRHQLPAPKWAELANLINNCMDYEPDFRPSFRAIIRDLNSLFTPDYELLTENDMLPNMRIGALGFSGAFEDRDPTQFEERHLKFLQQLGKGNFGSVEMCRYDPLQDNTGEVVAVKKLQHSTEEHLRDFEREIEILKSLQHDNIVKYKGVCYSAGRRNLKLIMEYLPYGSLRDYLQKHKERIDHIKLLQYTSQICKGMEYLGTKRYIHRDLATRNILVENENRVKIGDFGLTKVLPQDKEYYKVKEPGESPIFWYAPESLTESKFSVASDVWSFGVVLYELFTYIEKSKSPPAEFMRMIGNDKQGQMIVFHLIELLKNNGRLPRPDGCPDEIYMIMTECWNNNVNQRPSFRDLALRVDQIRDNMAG
observable: IC50 (nM)

Worked cases, answers included:
compound="CC[C@@H]1CN(CCC#N)C[C@@H]1Nc1c(C#N)cnc2[nH]ccc12 (relative stereo)" observable=IC50 display_unit=nM test_value=7.9
compound=N#Cc1cnc2[nH]ccc2c1N[C@H]1C[C@@H](NS(=O)(=O)c2ccc(C(F)(F)F)cc2)C1 observable=IC50 display_unit=nM test_value=13
compound="CC[C@@H]1CN(S(=O)(=O)CCC(F)(F)F)C[C@@H]1Nc1c(C#N)cnc2[nH]ccc12 (relative stereo)" observable=IC50 display_unit=nM test_value=7.8
compound="CC[C@@H]1CN(C(=O)NCC(C)C)C[C@@H]1Nc1c(C#N)cnc2[nH]ccc12 (relative stereo)" observable=IC50 display_unit=nM test_value=6.5
compound=CN(c1c(C#N)cnc2[nH]ccc12)[C@H]1C[C@@H](NS(=O)(=O)c2cccc3nonc23)C1 observable=IC50 display_unit=nM test_value=5.7

1. COc1nsc(NC(=O)N2C[C@H]3C[C@H](Nc4c(C(F)(F)F)cnc5[nH]ccc45)C[C@H]3C2)n1
2. CCOc1nc(NC(=O)N2C[C@H]3C[C@H](N(C)c4c(C#N)cnc5[nH]ccc45)C[C@H]3C2)no1
3. COCC1CCN(S(=O)(=O)C[C@H]2CC[C@H](N(C)c3c(C#N)cnc4[nH]ccc34)CC2)C1 (stereo partly drawn)
4. C[C@@H]1CN(C(=O)NCC(F)(F)F)C[C@@H]1Nc1c(C#N)cnc2[nH]ccc12
IN: # sort list by recorded IC50, greatest to least Your reply should list the labels following the order given in the request.
OUT: 3, 1, 4, 2

A. CCCS(=O)(=O)N[C@H]1C[C@@H](Nc2c(C#N)cnc3[nH]ccc23)C1
B. CC[C@@H]1CN(C(=O)NCC(C)(F)F)C[C@@H]1Nc1c(C#N)cnc2[nH]ccc12 (relative stereo)
IN: Name the one with the greater IC50 value, either A or B as given. When you have decided, please share the label of that item.
OUT: B

I. CCC1CN(C(=O)CC#N)CC1Nc1c(C#N)cnc2[nH]ccc12 (stereo not drawn)
II. CC[C@@H]1CN(C(=O)NCC(C)(C)C)C[C@@H]1Nc1c(C#N)cnc2[nH]ccc12 (relative stereo)
III. N#Cc1cn2c(n1)CC(Nc1c(C#N)cnc3[nH]ccc13)CC2 (stereo not drawn)
IN: # rank by IC50, ascending (min first) Your reply should list the labels following the order given in the request.
OUT: III, I, II

---

Parameter: Paw swelling rate_6 h (%). Scope: all listed entries.
system: Sprague-Dawley (SD) mice; assay: Concanavalin-induced paw swelling in mice; assay type: in vivo; conditions: 10 mg/kg intragastric, 6 h
The reply should contain only the number, in %.

molecule="N#Cc1cnc2[nH]ccc2c1N[C@H]1C[C@@H](NS(=O)(=O)CCC(F)(F)F)C1 [Compound H12]" test_value=24.00
molecule="CN(c1c(C#N)cnc2[nH]ccc12)[C@H]1C[C@@H]2CN(C(=O)Nc3nc(OCC(C)(C)N)ns3)C[C@@H]2C1 [Compound H44]" test_value=23.50
molecule="CN(c1c(C#N)cnc2[nH]ccc12)[C@H]1C[C@@H]2CN(C(=O)NCC(F)(F)F)C[C@@H]2C1 [Compound H22]" test_value=31.00

Let us move to another entry and its Paw swelling rate_6 h (%).
IN: # value lookup — system Sprague-Dawley (SD) mice, readout Paw swelling rate_6 h (%), item N#Cc1cnc2[nH]ccc2c1N1CC2CN(C(=O)NCC(F)(F)F)CC21 (centres unmarked) [Compound H39]
OUT: 25.30

---

biological target: JAK2 (Homo sapiens (Human)); test: JAK2 LANCE Ultra kinase assay; format: biochemical; settings: 12 uM ATP
observable: IC50 (nM)

compound="CC[C@@H]1CN(C(=O)NCC(F)(F)F)C[C@@H]1Nc1c(C(F)(F)F)cnc2[nH]ccc12 (relative stereo)" observable=IC50 test_value=14.9
compound="C[C@@H]1CN(C(=O)CC#N)C[C@@H]1N(C)c1c(C#N)cnc2[nH]ccc12 (relative stereo)" observable=IC50 test_value=12.3

I. CN(c1c(C#N)cnc2[nH]ccc12)[C@H]1C[C@@H]2CN(C(=O)Nc3nc(C4CC4)ns3)C[C@@H]2C1
II. CN(c1c(C#N)cnc2[nH]ccc12)[C@H]1C[C@@H]2CN(C(=O)Nc3ccc(Cl)c(C(F)(F)F)c3)C[C@@H]2C1
III. COCCOc1nsc(NC(=O)N2C[C@H]3C[C@H](N(C)c4c(C#N)cnc5[nH]ccc45)C[C@H]3C2)n1
IN: # sort list by recorded IC50, greatest to least Your reply should list the labels following the order given in the request.
OUT: III, I, II

---

experiment: Collagen-induced rheumatoid arthritis model, clinical score; format: in vivo, mice; design: key: 0-4 per limb by redness/deformity, max 16 per animal; settings: clinical score 0-16 per animal, Day 0 (before modeling)
observable: Score Day 0
Just the number, please, no unit attached.

molecule=CCCS(=O)(=O)N[C@H]1C[C@@H](N(C)c2c(C#N)cnc3[nH]ccc23)C1 test_value=0.00
molecule="N#Cc1cnc2[nH]ccc2c1N1CC2CN(C(=O)NCC(F)(F)F)CC21 (centres unmarked)" test_value=0.00
molecule=CN(c1c(C#N)cnc2[nH]ccc12)[C@H]1C[C@@H]2CN(C(=O)Nc3ccc(Cl)c(C(F)(F)F)c3)C[C@@H]2C1 test_value=0.00
molecule="CN(Cc1cnc2nc(N)nc(N)c2n1)c1ccc(C(=O)N[C@@H](CCC(=O)O)C(=O)O)cc1 [Methotrexate, reference compound]" test_value=0.00
molecule=CC(C)c1nsc(NC(=O)N2C[C@H]3C[C@H](N(C)c4c(C#N)cnc5[nH]ccc45)C[C@H]3C2)n1 test_value=0.00

IN: What value of Score Day 0 has been reported for the following molecule? CN(c1c(C#N)cnc2[nH]ccc12)[C@H]1C[C@@H]2CN(C(=O)Nc3nc(OCC(C)(C)N)ns3)C[C@@H]2C1
OUT: 0.00

IN: Record: COc1nsc(NC(=O)N2C[C@H]3C[C@H](N(C)c4c(C#N)cnc5[nH]ccc45)C[C@H]3C2)n1
OUT: 0.00

IN: Record: N#Cc1cnc2[nH]ccc2c1N[C@H]1C[C@@H](NS(=O)(=O)CCC(F)(F)F)C1
OUT: 0.00

---

biological target: JAK1 (Homo sapiens (Human), UniProt P23458); assay: JAK1 LANCE Ultra kinase assay; assay type: biochemical; details: ratio of IC50 JAK2 to IC50 JAK1
Sequence (P23458 whole entry): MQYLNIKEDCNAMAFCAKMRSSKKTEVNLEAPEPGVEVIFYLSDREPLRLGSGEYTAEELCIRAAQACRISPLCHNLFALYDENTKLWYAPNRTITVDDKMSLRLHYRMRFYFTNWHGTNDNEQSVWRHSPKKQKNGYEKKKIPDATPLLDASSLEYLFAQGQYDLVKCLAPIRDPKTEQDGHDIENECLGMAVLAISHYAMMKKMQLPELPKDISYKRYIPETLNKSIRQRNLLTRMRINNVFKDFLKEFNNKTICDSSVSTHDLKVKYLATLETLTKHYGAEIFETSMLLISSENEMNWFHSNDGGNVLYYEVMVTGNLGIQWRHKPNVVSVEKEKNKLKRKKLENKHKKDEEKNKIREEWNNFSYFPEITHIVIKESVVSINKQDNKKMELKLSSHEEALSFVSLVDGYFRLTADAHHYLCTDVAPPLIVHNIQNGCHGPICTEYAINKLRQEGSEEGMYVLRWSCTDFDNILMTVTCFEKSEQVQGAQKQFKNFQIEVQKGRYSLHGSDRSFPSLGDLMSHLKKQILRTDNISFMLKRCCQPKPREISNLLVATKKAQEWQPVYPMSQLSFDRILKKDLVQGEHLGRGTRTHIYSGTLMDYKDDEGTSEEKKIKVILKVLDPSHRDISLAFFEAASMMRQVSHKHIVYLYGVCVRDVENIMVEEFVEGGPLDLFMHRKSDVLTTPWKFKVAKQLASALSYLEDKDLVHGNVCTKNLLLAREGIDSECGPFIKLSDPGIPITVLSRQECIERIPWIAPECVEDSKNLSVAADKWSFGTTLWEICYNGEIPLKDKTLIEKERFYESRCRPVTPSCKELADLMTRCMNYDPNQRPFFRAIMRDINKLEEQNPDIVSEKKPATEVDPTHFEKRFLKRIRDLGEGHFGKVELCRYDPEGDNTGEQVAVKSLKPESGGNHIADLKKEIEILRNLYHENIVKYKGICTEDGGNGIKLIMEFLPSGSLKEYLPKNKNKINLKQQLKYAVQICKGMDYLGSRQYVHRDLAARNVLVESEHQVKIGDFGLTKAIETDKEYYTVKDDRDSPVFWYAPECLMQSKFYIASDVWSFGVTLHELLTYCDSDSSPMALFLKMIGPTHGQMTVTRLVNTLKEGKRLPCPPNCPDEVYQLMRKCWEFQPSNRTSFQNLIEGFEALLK
observable: JAK2/JAK1

Worked cases, answers included:
compound="CC[C@@H]1CN(C(=O)NCC(C)C)C[C@@H]1Nc1c(C#N)cnc2[nH]ccc12 (relative stereo)" tgt="JAK1 (Homo sapiens (Human), UniProt P23458)" observable=JAK2/JAK1 test_value=6.77
compound=CC(C)c1nsc(NC(=O)N2C[C@H]3C[C@H](N(C)c4c(C#N)cnc5[nH]ccc45)C[C@H]3C2)n1 tgt="JAK1 (Homo sapiens (Human), UniProt P23458)" observable=JAK2/JAK1 test_value=11.23
compound=CCCS(=O)(=O)N[C@H]1C[C@@H](N(C)c2c(C#N)cnc3[nH]ccc23)C1 tgt="JAK1 (Homo sapiens (Human), UniProt P23458)" observable=JAK2/JAK1 test_value=5.59
compound=CCOc1noc(NC(=O)N2C[C@H]3C[C@H](N(C)c4c(C#N)cnc5[nH]ccc45)C[C@H]3C2)n1 tgt="JAK1 (Homo sapiens (Human), UniProt P23458)" observable=JAK2/JAK1 test_value=7.49
compound="CC[C@@H]1CN(S(=O)(=O)CCC(F)(F)F)C[C@@H]1Nc1c(C#N)cnc2[nH]ccc12 (relative stereo)" tgt="JAK1 (Homo sapiens (Human), UniProt P23458)" observable=JAK2/JAK1 test_value=8.21

1. N#Cc1cnc2[nH]ccc2c1N[C@H]1C[C@@H]2CN(C(=O)Nc3nc(C4CC4)ns3)C[C@@H]2C1
2. N#Cc1cnc2[nH]ccc2c1N[C@H]1C[C@@H](NS(=O)(=O)c2cccc(C(F)(F)F)c2)C1
3. CN(c1c(C#N)cnc2[nH]ccc12)C1CC(NS(=O)(=O)c2ccc(C(F)(F)F)cc2)C1 (stereo not shown)
IN: # rank by JAK2/JAK1, ascending (min first) Your reply should list the labels following the order given in the request.
OUT: 1, 2, 3
